Target: T1, mouse GIP receptor (mouse, UniProt Q0P543 19-460)
T1 sequence (looked up): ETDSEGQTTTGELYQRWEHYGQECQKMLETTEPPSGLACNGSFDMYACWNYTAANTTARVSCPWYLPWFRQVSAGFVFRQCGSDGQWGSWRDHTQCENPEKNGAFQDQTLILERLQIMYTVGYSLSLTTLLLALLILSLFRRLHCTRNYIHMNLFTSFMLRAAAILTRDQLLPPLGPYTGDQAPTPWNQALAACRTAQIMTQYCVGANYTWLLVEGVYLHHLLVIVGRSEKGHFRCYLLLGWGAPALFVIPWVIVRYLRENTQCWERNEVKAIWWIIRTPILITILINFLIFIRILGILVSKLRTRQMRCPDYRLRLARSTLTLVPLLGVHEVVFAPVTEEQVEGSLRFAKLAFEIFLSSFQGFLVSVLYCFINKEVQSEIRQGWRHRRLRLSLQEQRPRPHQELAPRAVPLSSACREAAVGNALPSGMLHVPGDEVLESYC
Assay: cell-based or functional assay
The label is Fulfilled for cAMP EC50 below 4 nM and Not fulfilled for cAMP EC50 equal to or exceeding 4 nM.

BINDER: IP263 (Fc fusion) YSEGTFTSDYSKLLEEEAVRLFIEWLVKQPGGGGGSGGGGSGGGGSGGGGSATHTCPPCPAPEF
CLASS: Not fulfilled

Qu. Dear reviewer, please state whether IP258 (Fc fusion) YSEGTFTSDYSKLLDEEAVRLFIEWLVKGPGGGGGSGGGGSGGGGSGGGGSATHTCPPCPAPEF has cAMP EC50 strictly beneath 4 nM.
Ans. Not fulfilled

Qu. Is cAMP EC50 strictly under 4 nM for the entry IP300 (Fc fusion) YSEGTFTSDYSKLLEEEAVRLFIEWLLAGAPPGGGGGGGGGGGGGGGGGGGGGACPPC ?
Ans. Fulfilled

Qu. Answer whether the binder IP298 (Fc fusion) YSEGTFTSDVSSYLERQAIDEFIAWLLKGGAAAGGSGSTASSGSGSATGGGGAATHTCPPC has cAMP EC50 strictly less than 4 nM
Ans. Not fulfilled
